Test: TIMS collisional cross section (CCS, N2) of the lipid ion; higher = larger ion cross section
Conditions: sample type: plasma; ionization mode: positive; one isomer drawn
value.kind: TIMS collisional cross section (Å²)

CCCCC/C=C\C/C=C\CCCCCCCC(=O)O[C@H](COC(=O)CCCCCCC/C=C\CCCCCCCC)COC(=O)CCCCCCCCC/C=C\CCCCCCCC [TG 18:1_18:2_20:1] (ion (formula + adduct): [C59H106O6+NH4] 1+)
330.8
CCCCC/C=C\C/C=C\C/C=C\C/C=C\CCCCCC(=O)OC[C@@H](COC(=O)CCCCCCCCCCCCCCC)OC(=O)CCCCCCC/C=C\CCCCCCCC [TG 16:0_18:1_22:4] (ion (formula + adduct): [C59H104O6+NH4] 1+)
329.9
CC/C=C\C/C=C\C/C=C\CCCCCCCC(=O)OC[C@@H](COC(=O)CCCCCCC/C=C\C/C=C\CCCCC)OC(=O)CCCCCCC/C=C\C/C=C\CCCCC [TG 18:2_18:2_18:3] (ion (formula + adduct): [C57H96O6+NH4] 1+)
317.6
CCCCCCCC/C=C\CCCCCCCC(=O)OC[C@@H](COC(=O)CCCCCCCCCCCCCCCC)OC(=O)CCCCCCCCCCCCCCCCC [TG 17:0_18:0_18:1] (ion (formula + adduct): [C56H106O6+NH4] 1+)
327.4

----------
Test: TIMS collisional cross section (CCS, N2) of the lipid ion; higher = larger ion cross section
Details: sample type: HeLa; ionization mode: positive; one isomer drawn
value.kind: TIMS collisional cross section (Å²)

CCCCCCCC/C=C\CCCCCCCCCC(=O)OC[C@@H](COC(=O)CCCCCCC/C=C\CCCCCCCC)OC(=O)CCCCCCCCCCCCCCCCCC [TG 18:1_19:0_20:1] (ion (formula + adduct): [C60H112O6+NH4] 1+)
336.7
CCCCCCCC/C=C\CCCCCCCC(=O)O[C@@H](CO)COC(=O)CCCCCCC/C=C\CCCCCCCCC [DG 19:1_18:1_0:0] (ion (formula + adduct): [C40H74O5+NH4] 1+)
268.3
CCCCCCCC/C=C\CCCCCCCCCC(=O)OC[C@@H](COC(=O)CCCCCCC/C=C\CCCCCCCC)OC(=O)CCCCCCC/C=C\CCCCCCCC [TG 18:1_18:1_20:1] (ion (formula + adduct): [C59H108O6+NH4] 1+)
332.1
CCCCC/C=C\CCCCCCCC(=O)OC[C@H](COC(=O)CCCCCCC/C=C\CCCCCCCC)OC(=O)CCCCCCC/C=C\CCCCCC [TG 15:1_16:1_18:1] (ion (formula + adduct): [C52H94O6+NH4] 1+)
310.8

----------
Assay: TIMS collisional cross section (CCS, N2) of the lipid ion; higher = larger ion cross section
Conditions: sample type: Liver; ionization mode: positive; one isomer drawn
value.kind: TIMS collisional cross section (Å²)

CCCCCCCCCCCCC/C=C/[C@@H](O)[C@H](CO[C@@H]1O[C@H](CO)[C@@H](O)C(O)C1O)NC(=O)CCCCCCCCCCCCCCCCCCC (stereo partly drawn) [GlcCer d18:1_20:0@] (ion (formula + adduct): [C44H85NO8+H] 1+)
292.9
CCCC/C=C\CCCCCCCC(=O)OC[C@H](COC(=O)CCCCCCC/C=C\CCCCCC)OC(=O)CCCCCCC/C=C\CCCCC [TG 14:1_15:1_16:1] (ion (formula + adduct): [C48H86O6+NH4] 1+)
296
CCCCCCCCCCCCCCC(=O)OC[C@@H](COC(=O)CCCCCCCCCCCCC)OC(=O)CCCCCCCCCCCCCC [TG 14:0_15:0_15:0] (ion (formula + adduct): [C47H90O6+NH4] 1+)
302

----------
Experiment: TIMS collisional cross section (CCS, N2) of the lipid ion; higher = larger ion cross section
Conditions: sample type: plasma; ionization mode: positive; one isomer drawn
value.kind: TIMS collisional cross section (Å²)

Illustrative cases are given below, each with its answer.
CCCCC/C=C\C/C=C\CCCCCCCC(=O)OC[C@@H](COC(=O)CCCCCCCCCCC)OC(=O)CCCCCCCCCCCCC [TG 12:0_14:0_18:2] (ion (formula + adduct): [C47H86O6+NH4] 1+)
295.8
CCCCC/C=C\C/C=C\C/C=C\C/C=C\CCCC(=O)O[C@H](COC(=O)CCCCCCCCCCCCCCCC)COP(=O)([O-])OCC[N+](C)(C)C [PC 17:0@_20:4] (ion (formula + adduct): [C45H82NO8P+H] 1+)
292.4
CCCCC/C=C\C/C=C\CCCCCCCCCC(=O)O[C@@H](CO)COC(=O)CCCCCCC/C=C\CCCCCCCC [DG 18:1_20:2_0:0] (ion (formula + adduct): [C41H74O5+NH4] 1+)
268.2

(A) CCCCC/C=C\C/C=C\C/C=C\C/C=C\C/C=C\CCC(=O)OC[C@@H](O)COP(=O)(O)OCCN [LPE 22:5] (ion (formula + adduct): [C27H46NO7P+H] 1+)
(B) CCCCCCCCCCCCCCCCC(=O)OC[C@@H](COC(=O)CCCCCCCCCCCCCCC)OC(=O)CCCCCCCCCCCCCCC [TG 16:0_16:0_17:0] (ion (formula + adduct): [C52H100O6+NH4] 1+)
Kindly identify the item with the lower TIMS collisional cross section figure among these two: A and B Output the label that corresponds to your choice. A
(A: 220.3 Å², B: 317.6 Å²)

----------
Test: TIMS collisional cross section (CCS, N2) of the lipid ion; higher = larger ion cross section
Details: sample type: plasma; ionization mode: positive; one isomer drawn
value.kind: TIMS collisional cross section (Å²)

CCCC/C=C\CCCCCCCC(=O)O[C@H](COC(=O)CCCCCCCCCCC)COC(=O)CCCCCCCCCCCCCCC [TG 12:0_14:1_16:0] (ion (formula + adduct): [C45H84O6+NH4] 1+)
291.9
CCCC/C=C\CCCCCCCC(=O)OC[C@H](COC(=O)CCCCCCC/C=C\CCCCCCCC)OC(=O)CCCCCCC/C=C\CCCCCC [TG 14:1_16:1_18:1] (ion (formula + adduct): [C51H92O6+NH4] 1+)
307
CCCCC/C=C\C/C=C\C/C=C\C/C=C\CCCC(=O)OC[C@@H](COC(=O)CCCCCCCCCCC)OC(=O)CCCCCCCCCCCCCCC [TG 12:0_16:0_20:4] (ion (formula + adduct): [C51H90O6+NH4] 1+)
307.4
CCCCCCCCCCCCC/C=C/[C@@H](O)[C@H](COP(=O)([O-])OCC[N+](C)(C)C)NC(=O)CCCCCCCCCCCCCCCCCCC [SM d18:1_20:0@] (ion (formula + adduct): [C43H87N2O6P+H] 1+)
297

----------
Test: TIMS collisional cross section (CCS, N2) of the lipid ion; higher = larger ion cross section
Details: sample type: Liver; ionization mode: positive; one isomer drawn
value.kind: TIMS collisional cross section (Å²)

CCCCCCCC/C=C\CCCCCCCC(=O)O[C@H](COC(=O)CCCCCCCCCCCCCCCCC)COC(=O)CCCCCCCCCCCCCCCCCCCCC [TG 18:0_18:1_22:0] (ion (formula + adduct): [C61H116O6+NH4] 1+)
342
CCCCC/C=C\C/C=C\CCCCCCCC(=O)O[C@@H](CO)COC(=O)CCCCCCCCCCCCC [DG 14:0_18:2_0:0] (ion (formula + adduct): [C35H64O5+NH4] 1+)
252
CC/C=C\C/C=C\C/C=C\C/C=C\C/C=C\C/C=C\CCC(=O)O[C@H](COC(=O)CCCCCCCCCCCCCCCCC)COP(=O)(O)OCCN [PE 18:0_22:6] (ion (formula + adduct): [C45H78NO8P+H] 1+)
285.6
CCCCCCCCCCCCCCCC(=O)O[C@@H](CO)COC(=O)CCCCCCCCCCCCC [DG 14:0_16:0_0:0] (ion (formula + adduct): [C33H64O5+NH4] 1+)
252.7
CCCCC/C=C\C/C=C\CCCCCCCC(=O)O[C@@H](CO)COC(=O)CCCCCCC/C=C\CCCCCC [DG 16:1_18:2_0:0] (ion (formula + adduct): [C37H66O5+NH4] 1+)
253.1
CCCCC/C=C\C/C=C\C/C=C\C/C=C\CCCC(=O)O[C@H](COC(=O)CCCCCCCCCCCCCCC)COC(=O)CCCCCCCCCCCCCCCCCCCCC [TG 16:0_20:4_22:0] (ion (formula + adduct): [C61H110O6+NH4] 1+)
338.2
CCCCC/C=C\C/C=C\CCCCCCCC(=O)OC[C@H](CO)OC(=O)CCCCCCC/C=C\C/C=C\CCCCC [DG 18:2_18:2_0:0] (ion (formula + adduct): [C39H68O5+NH4] 1+)
256.6
CCCCCCCCCCCCCCCCCC(=O)OC[C@@H](COC(=O)CCCCCCCCCCCCCCC)OC(=O)CCCCCCCCCCCCCCCCC [TG 16:0_18:0_18:0] (ion (formula + adduct): [C55H106O6+NH4] 1+)
326.7
CCCCC/C=C\C/C=C\CCCCCCCC(=O)O[C@@H](CO)COC(=O)CCCCCCCCCCCCCCC [DG 16:0_18:2_0:0] (ion (formula + adduct): [C37H68O5+NH4] 1+)
259.8
CCCCC/C=C\C/C=C\C/C=C\C/C=C\C/C=C\CCC(=O)OC[C@@H](O)COP(=O)(O)OCCN [LPE 22:5] (ion (formula + adduct): [C27H46NO7P+H] 1+)
221
CCCCCCCCCCCCCC(=O)OC[C@@H](COC(=O)CCCCCCCCCCC)OC(=O)CCCCCCCCCCC [TG 12:0_12:0_14:0] (ion (formula + adduct): [C41H78O6+NH4] 1+)
281.3
CCCCC/C=C\C/C=C\C/C=C\C/C=C\CCCC(=O)OC[C@H](COP(=O)(O)OCCN)OC(=O)CCCCCCC/C=C\CCCCCC [PE 20:4_16:1] (ion (formula + adduct): [C41H72NO8P+H] 1+)
272.6
CCCCCCCCCCCCCCCCC(=O)OC[C@@H](COC(=O)CCCCCCCCCCC)OC(=O)CCCCCCCCCCCCCCC [TG 12:0_16:0_17:0] (ion (formula + adduct): [C48H92O6+NH4] 1+)
304.5
